- ASSAY SUMMARY: in vivo
- TEST CONDITIONS: both, KM, mouse, in vivo, po, LD50 95% confidence interval upper limit, mice, orogastric gavage, Bliss method
QUANTITY NAME: LD50 at 14 days (mg/kg)
Numbers only, in mg/kg.

Exam item: What value of measured LD50 at 14 days is listed for `C[C@H]1CC[C@@]2(O)C(C)(C)[C@@H]3CC[C@@]2(C)[C@H]1C3` ?
Marked response: 5500
